// data source = BindingDB's records for doi:10.1021/acsmedchemlett.8b00549

# experiment: Inhibition of HIV1 reverse transcriptase Y181C mutant in HIV1 infected HEK293T cells harboring luciferase gene assessed as reduction in viral infection after 48 hrs by Bright-Glo luciferase assay
quantity: pIC50
// returns pIC50 (minus log10 of molar concentration), number only

Query: For "CCn1c(=O)[nH]c2cccc(Oc3cc(Cl)cc(C#N)c3)c21" , what is its reported pIC50?
Reply: 7.74

Query: For "Cn1c(=O)[nH]c2cccc(Oc3cc(Cl)cc(C#N)c3)c21" , what is its reported pIC50?
Reply: 7.26

Query: For "CCn1c(=O)[nH]c2cccc(Oc3cc(C#N)cc(/C=C/C#N)c3)c21" , what is its reported pIC50?
Reply: 7.14

Query: For "CC1(C)OC(=O)Nc2cccc(Oc3cc(Cl)cc(C#N)c3)c21" , what is its reported pIC50?
Reply: 7.55
